Measured values drawn from patent US20260217652A1 for this set.

# target.of.assay: p38 MAPK/ATF2 (Homo sapiens, UniProt Q16539)
# Construct: Sino Biological (ATF2) 04-152; 11599-H20B
# protocol.details: In vitro activity assay of p38 MAPK/ATF2 (HTRF)
# recorded.conditions: p38α, Human ATF2 Protein, ATP; 35 min at 20° C.
observed.property: pIC50
In simple prose, pIC50 is minus the logarithm base ten of a concentration in moles per litre.

1. Cc1cnc(-c2cccc(C(=O)N(C)C)c2)c(F)c1-n1c(C)cc(OCc2ncc(F)cc2F)c(Cl)c1=O (single isomer, unassigned) [Compound 32-P1] = 5.44
2. Cc1cnc(-c2ccc(F)c([C@@](C)(O)CO)c2F)cc1-n1c(C)cc(OCc2ncc(F)cc2F)c(Cl)c1=O (single isomer, unassigned) = 5.34

Please turn your attention to the following entry.
The molecule identified as CNC(=O)c1cccc(-c2ncc(C)c(-n3c(C)cc(OCc4ncc(F)cc4F)c(Cl)c3=O)c2F)c1 [Compound 31-P1] registered its pIC50 at 5.73
